Measured values drawn from patent US20100280227A1 for this set.

Molecular target: T1, mouse BR3 extracellular domain (mouse, UniProt Q9D8D0 1-64)
T1 construct: also called mBR3-ECD; mBR-ECD
T1 sequence: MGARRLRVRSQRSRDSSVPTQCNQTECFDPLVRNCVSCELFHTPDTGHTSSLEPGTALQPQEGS
Assay: phage competition ELISA
endpoint: IC50

Q. Recorded IC50 for 19 (Fab, V domains shown, also called V3-19) VH: EVQLVESGGGLVQPGGSLRLSCAASGFSIARSSIHWVRQAPGKGLEWVAWILPSAGSTDYADSVKGRFTISADTSKNTAYLQMNSLRAEDTAVYYCARRVCYNRLGVCAGGMDYWGQGTLVTVSS VL: DIQMTQSPSSLSASVGDRVTITCRASQDVSTAVAWYQQKPGKAPKLLIYSASFLYSGVPSRFSGSGSGTDFTLTISSLQPEDFATYYCQQSRITPPTFGQGTKVEIKR , please?
A. 1.8 nM
